- System: SK-MEL-5 melanoma
- assay_details: NCI-60 one-dose screen, 48 h
- experimental_setup: 10 µM unless noted
Compounds without any hit were thinned out: in the full panel of roughly 83,000, 20% have a hit. Active and inactive are the calls of the source. The calls were made as follows: active = growth percent below 10; inactive = the rest.
Could you please pick one outcome from this set? TRUE (active), FALSE (inactive)

Worked examples, 3 molecules total:
O=C(CC(O)c1ccccc1)Nc1ccccn1 (configuration not stated): FALSE
O=C1c2c(c3c4cc(Br)ccc4[nH]c3c3ccc4ccccc4c23)C(=O)N1O: FALSE
CN1CCN(CCCn2c3c(sc4ncccc43)c(=O)n3nnc(-c4ccccc4)c23)CC1: TRUE

Q. Assay outcome for Cc1cc(=O)c2c(C)ccc(C)c2[nH]1 : what was it?
A. FALSE

Q. Assay outcome for COc1cccc(Nc2nc(NCCO)c3ccccc3n2)c1 : what was it?
A. FALSE

Q. Assay outcome for Cn1c(=O)c2c(-c3ccccc3F)n(-c3ccc4c(c3)OCO4)cc2n(C)c1=O : what was it?
A. FALSE

Q. Assay outcome for FC(F)(F)Oc1ccc2c(c1)C[C@H]1C[C@@H](c3ccoc3)N2O1 : what was it?
A. FALSE

Q. Assay outcome for O=C(NC1CC1)c1cc2n(n1)CC(c1ccccc1)N2 (configuration not stated) : what was it?
A. FALSE

* * *

- Test system: OVCAR-8 ovarian
- assay_details: NCI-60 one-dose screen, 48 h (100 = growth as untreated, 0 = no growth, -100 = all killed)
- experimental_setup: 10 µM unless noted
The panel holds about 83,000 compounds, 20% with a hit somewhere; the sample as a whole holds those more often.
Documented growth across a set of compounds
Numbers only; they are read as %.

// known answers, use as guide
NC(=O)c1cc(I)ccc1NC(=O)COc1ccc(Cl)cc1Cl: 102
CN(C)C(=S)SCN1C(=O)c2ccc([N+](=O)[O-])cc2S1(=O)=O: 98.5
CCCCCCCCCCCCSC1=CC(=O)C=CC1=O: 35.1
N#Cc1c(O)c2c(c(O)c1C#N)C(=O)c1ccccc1C2=O: 2.33
O=C(COc1cccc(/C=C2\COc3ccccc3C2=O)c1)c1ccccc1: 19.1

Q. For the compound Cc1cc(Cl)c2c(Cl)ccc(Cl)c2n1 , what growth is on record?
A. 103

* * *

Documented growth across a set of compounds
- Test system: HT29 colon
- assay_details: NCI-60 one-dose screen, 48 h (100 = growth as untreated, 0 = no growth, -100 = all killed)
- experimental_setup: 10 µM unless noted
The panel holds about 83,000 compounds, 20% with a hit somewhere; the sample as a whole holds those more often.
Numbers only; they are read as %.

COc1cccc2c(=O)c3c(sc12)c(NCCN(C)C)nc1ccccc13: 3.18

Q. For the compound COc1nc2c(cc1S(=O)(=O)c1ccccc1)CCc1c-2cnn1-c1ccccc1 , what growth is on record?
A. 54.7

Q. For the compound CCCC1=NNC(=O)C1 , what growth is on record?
A. 103

Q. For the compound COc1cc(C(F)(F)F)ccc1-c1cc(-c2ccc(F)cc2)n[nH]1 , what growth is on record?
A. 92.5

Q. For the compound CSc1ccc(OC(C)=O)cc1C , what growth is on record?
A. 104

Q. For the compound CCOC(=O)c1c(Cl)c2c(n1Cc1ccc(OC)cc1)-c1oncc1CCC2 , what growth is on record?
A. 78.8

* * *

- Tested on: BT-549 breast
- assay_details: NCI-60 one-dose screen, 48 h
- experimental_setup: 10 µM unless noted
About 83,000 compounds went through this panel and 20% of them were active in at least one assay; those are over-represented in the sample as a whole. Active and inactive are the calls of the source. How the source made its calls: active means growth percent below 10; inactive means the rest.
Could you please pick one outcome from this set? active, inactive

Worked examples, 10 molecules total:
COC(=O)c1c2c(c(C)[n+]([O-])c1C)C(=O)C=C(NCc1ccc(F)c(Cl)c1)C2=O: active
O=[N+]([O-])c1ccc(C=C2C(Cl)=C(Cl)C(Cl)=C2Cl)cc1: inactive
COc1ccc(-c2c3c(N)c4c(nc3nc3c2c(C)nn3-c2ccccc2)CCCCC4)cc1: inactive
O=c1[nH]c(-c2ccccn2)nc2sc3c(c12)CCCCCC3: inactive
COc1cc2cc(Oc3ccc(NC(=O)Nc4cccc(C(F)(F)F)c4)cc3)c(C)nc2cc1OCCN1CCCCC1: inactive
COC(=O)[C@@]12CC[C@@H](C)[C@]3(C[C@@H](c4ccoc4)OC3=O)[C@H]1CC[C@@H]1O[C@@]12C: inactive
C=CC[P+](c1ccccc1)(c1ccccc1)c1ccccc1: inactive
O=c1oc2ccccc2cc1-c1csc(N=Nc2c(O)[nH]c3ccc(Cl)cc23)n1: inactive
O=C1CCC(N2Cc3c(C#CCCCNC(=O)c4cc5c(o4)C(=O)c4ccccc4C5=O)cccc3C2=O)C(=O)N1 (stereo not given): active
Cc1nc2cc(Nc3nc(Nc4ccc(F)cc4)nc(N4CCN(C)CC4)n3)ccc2n1Cc1ccccc1: active

Q. Assay outcome for O=C(N/N=C/c1ccc(OC(F)F)c(OC2CCCC2)c1)c1cnn2c1NC(c1ccccc1)C2 (stereo not given) : what was it?
A. inactive

Q. Assay outcome for Clc1cccc(Cl)c1Nc1ccc2nnc(-c3ccncc3)n2n1 : what was it?
A. inactive

* * *

- Tested on: HCT-116 colon
- assay_details: NCI-60 one-dose screen, 48 h
- experimental_setup: 10 µM unless noted
About 83,000 compounds went through this panel and 20% of them were active in at least one assay; those are over-represented in the sample as a whole. The source made the active and inactive calls. How the source made its calls: active means growth percent below 10; inactive means the rest.
Could you please pick one outcome from this set? y (active), n (inactive)

Worked examples, 3 compounds total:
CCC(C)[C@H]1O[C@]2(CC[C@@H]1C)C[C@@H]1C[C@@H](C/C=C(\C)[C@@H](OC3C[C@H](OC)C(O[C@H]4C[C@H](OC)[C@@H](O)[C@H](C)O4)[C@H](C)O3)[C@@H](C)/C=C/C=C3\CO[C@@H]4[C@H](O)C(C)=C[C@@H](C(=O)O1)[C@]34O)O2 (some centres undefined): y
Cc1ccc(N=c2nc3sc4c(C)ccc(C)c4n3c(N)c2C#N)cc1: n
CSc1nnc(-c2sc3nnc(-c4ccccc4)c(-c4ccccc4)c3c2O)o1: n

Okay, next one:
Q. Assay outcome for CCCCCCCCCCCCSC1=CC(=O)C=CC1=O : what was it?
A. n

* * *

- System: NCI-H460 lung
- assay_details: NCI-60 one-dose screen, 48 h (100 = growth as untreated, 0 = no growth, -100 = all killed)
- experimental_setup: 10 µM unless noted
Compounds without any hit were thinned out: in the full panel of roughly 83,000, 20% have a hit. Calls of active or inactive are those of the source. The calls were made as follows: active = growth percent below 10; inactive = the rest.
measurement_name: growth

// known answers, use as guide
COc1cc(C2=NN(c3ccc(S(N)(=O)=O)cc3)C(c3ccc(Cl)cc3)C2)cc(OC)c1OC (stereo not given): 25.8% (inactive)
CCC12CCC3c4ccc(O)cc4CCC3C1CC(O)C2O (stereo not given): 88% (inactive)
COc1ccc(-n2ncc3c2ccc2cc(S(=O)(=O)c4ccccc4)c(=O)n(C)c23)cc1: 88.8% (inactive)

Q. For the compound COc1ccc(C2CC(c3cc(OC)c(OC)c(OC)c3)=NN2c2ccc(S(N)(=O)=O)cc2)cc1 (stereo not given) , what growth is on record?
A. 58.8% (inactive)

Q. For the compound Cc1nn(-c2ccccc2)c2nc3nc4c(c(N)c3c(-c3ccc(Cl)cc3)c12)CCC4 , what growth is on record?
A. 72.7% (inactive)

* * *

- System: SK-OV-3 ovarian
- assay_details: NCI-60 one-dose screen, 48 h (100 = growth as untreated, 0 = no growth, -100 = all killed)
- experimental_setup: 10 µM
About 83,000 compounds went through this panel and 20% of them were active in at least one assay; those are over-represented in the sample as a whole.
measurement_name: growth (%)
Numbers only; they are read as %.

// known answers, use as guide
CC[Si](CC)(CC)OC1[C@@H](O[Si](CC)(CC)CC)[C@@H](CNC(=O)NC)O[C@H]1n1cnc2c(NC(=O)Nc3ccccc3)ncnc21 (stereo not given in full): 98.2
CCOC(=O)c1cc2c(n(C)c1=O)-c1cnn(-c3ccc(OC)cc3)c1CC2: 108
COc1ccc(-c2nc(Nc3ccc(F)cc3)nc(Nc3ccc4c(c3)nc(C)n4Cc3ccccc3)n2)cc1: 76.8
O=C(COc1ccc(/C=C2\CSc3ccccc3C2=O)cc1)c1ccc(Cl)cc1: 107
Cc1nc2cc(Nc3nc(N4CCCCC4)nc(N4CCOCC4)n3)ccc2n1Cc1ccccc1: 39.8
COc1ccc(C2CC(c3cc(OC)c(OC)c(OC)c3)=NN2c2ccc(S(N)(=O)=O)cc2)cc1 (stereo not given): 88.3

--- query ---
Q. For the molecule COc1c(Cl)ccc2c(-c3nc4cc(Cl)c(F)cc4s3)cc(=O)oc12 , what growth is on record?
A. 104

* * *

- System: BT-549 breast
- assay_details: NCI-60 one-dose screen, 48 h (100 = growth as untreated, 0 = no growth, -100 = all killed)
- experimental_setup: 10 µM unless noted
This is part of a sample that, as a whole, favours compounds with a hit. Of some 83,000 tested, about 20% had one in any assay.
measurement_name: growth (%)
Numbers only; they are read as %.

// known answers, use as guide
Cc1c(C)n(CC(O)CNC2CCCCC2C)c2ccccc12 (stereo unspecified): -94.3
NC(=O)c1cc(Cl)ccc1NC(=O)COc1ccccc1: 43.8

Q. For the compound COc1c(Cl)ccc2c(-c3nc4cc(Cl)c(F)cc4s3)cc(=O)oc12 , what growth is on record?
A. 107

Q. For the compound COc1ccc(OC)c(/C=C2\Oc3cc(O)ccc3C2=O)c1 , what growth is on record?
A. 79.8

Q. For the compound Cc1nc2cc(Nc3nc(N4CCOCC4)nc(N4CCN(C)CC4)n3)ccc2n1Cc1ccccc1 , what growth is on record?
A. 103
